B1: PTPRD (parent)
chain: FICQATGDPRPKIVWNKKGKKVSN

variants of: B1; assay: protein stability index of a GFP-peptide fusion (GPS, HEK-293T) (PSI 1-6); higher = more stable; conditions: c terminus: a fixed tail appended;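 also: lentivirally expressed fusions sorted by FACS into six bins by GFP to DsRed ratio, PSI derived from sequencing read proportions per bin multiplied by bin number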
experimental.readout: protein stability index

Recorded results for 5 variants are shown here.
FICQATNDPRPKIVWNKKGKKVSN [G7N]    1.97
FICQATGDPRPKIVWNKKGPKVSN [K20P]    2
FICQATGDPRPKIVWNKKEKKVSN [G19E]    1.8
FICQYTGDPRPKIVWNKKGKKVSN [A5Y]    2.25
FICQATGDSRPKIVWNKKGKKVSN [P9S]    2

// query # get_value(readout='protein stability index', item= FICQATGDPRPKIVWNKKGKWVSN [K21W] )
// result 1.72

// query # get_value(readout='protein stability index', item= FICQATQDPRPKIVWNKKGKKVSN [G7Q] )
// result 2.22

// query # get_value(readout='protein stability index', item= FICNATGDPRPKIVWNKKGKKVSN [Q4N] )
// result 2.03

// query # get_value(readout='protein stability index', item= FICQATGDPRPKIVWNKKCKKVSN [G19C] )
// result 1.26

// query # get_value(readout='protein stability index', item= FICQATGDPRPKIVWIKKGKKVSN [N16I] )
// result 1.99
